measured.on: FLAG–AjKissR1 (Apostichopus japonicus)
Sequence (A0A5B7LK60 entry or part of it): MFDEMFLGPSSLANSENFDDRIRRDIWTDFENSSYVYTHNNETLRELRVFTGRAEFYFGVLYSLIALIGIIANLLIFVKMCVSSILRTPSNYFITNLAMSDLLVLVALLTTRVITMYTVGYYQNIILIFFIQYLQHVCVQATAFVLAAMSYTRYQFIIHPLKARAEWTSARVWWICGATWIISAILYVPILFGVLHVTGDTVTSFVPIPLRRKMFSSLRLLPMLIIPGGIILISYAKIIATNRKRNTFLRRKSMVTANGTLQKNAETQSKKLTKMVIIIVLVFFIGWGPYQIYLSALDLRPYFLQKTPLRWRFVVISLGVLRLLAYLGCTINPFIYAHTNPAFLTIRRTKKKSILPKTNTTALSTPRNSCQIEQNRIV
experimental.details: flow cytometry on cells; ligand competition: 1.0 uM FITC-AjKiss1a with unlabeled kisspeptins at the indicated concentrations on HEK293 cells expressing FLAG-AjKissR1 or FLAG-AjKissR2; on ice 60-90 min; PBS with 0.2% BSA; FITC fluorescence as percentage of total binding
Where no end group is shown, it is not given here.

{"columns": ["binder", "IC50 [nM]"],
 "data": [
  ["SAVKNKNKSRARPPLLPF-NH2 [AjKiss1b (C-terminal amidated)]", 353]
]}

Values compiled from paper PMC7282810.
